Data origin: patent US20160297884A1

Below, each entry is listed alongside its reported koff.
Target: T1, Human BCMA (human, UniProt Q02223 1-54, limits assumed)
T1 construct: also called huBCMA; B-cell maturation antigen
T1 sequence (looked up): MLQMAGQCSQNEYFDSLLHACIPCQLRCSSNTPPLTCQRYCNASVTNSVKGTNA
Experiment: SPR, IgG immobilised, human BCMA analyte
readout_label: koff (s⁻¹)

1. C01_Rd4_0.6nM_C06 (antibody, V domains shown, IgG) VH: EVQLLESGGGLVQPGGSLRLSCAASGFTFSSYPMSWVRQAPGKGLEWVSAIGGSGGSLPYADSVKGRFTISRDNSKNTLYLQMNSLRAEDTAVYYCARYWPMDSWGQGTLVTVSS VL: EIVLTQSPGTLSLSPGERATLSCRASEAVPSTYLAWYQQKPGQAPRLLIYDASSRAPGIPDRFSGSGSGTDFTLTISRLEPEDFAVYYCQQYSAFPLTFGQGTKVEIK
0.0154
2. A02_Rd4_0.6nM_C09 (antibody, V domains shown, IgG) VH: EVQLLESGGGLVQPGGSLRLSCAASGFTFSSYAMNWVRQAPGKGLEWVSAISDSGGSMWYADSVKGRFTISRDNSKNTLYLQMNSLRAEDTAVYYCARYWPMSLWGQGTLVTVSS VL: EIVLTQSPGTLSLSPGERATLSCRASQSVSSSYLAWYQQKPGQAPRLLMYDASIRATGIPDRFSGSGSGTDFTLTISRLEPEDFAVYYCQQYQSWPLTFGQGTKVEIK
9.75e-05
